Biological target: MRP1 (ABCC1) (Homo sapiens)
Sequence (P33527 whole entry): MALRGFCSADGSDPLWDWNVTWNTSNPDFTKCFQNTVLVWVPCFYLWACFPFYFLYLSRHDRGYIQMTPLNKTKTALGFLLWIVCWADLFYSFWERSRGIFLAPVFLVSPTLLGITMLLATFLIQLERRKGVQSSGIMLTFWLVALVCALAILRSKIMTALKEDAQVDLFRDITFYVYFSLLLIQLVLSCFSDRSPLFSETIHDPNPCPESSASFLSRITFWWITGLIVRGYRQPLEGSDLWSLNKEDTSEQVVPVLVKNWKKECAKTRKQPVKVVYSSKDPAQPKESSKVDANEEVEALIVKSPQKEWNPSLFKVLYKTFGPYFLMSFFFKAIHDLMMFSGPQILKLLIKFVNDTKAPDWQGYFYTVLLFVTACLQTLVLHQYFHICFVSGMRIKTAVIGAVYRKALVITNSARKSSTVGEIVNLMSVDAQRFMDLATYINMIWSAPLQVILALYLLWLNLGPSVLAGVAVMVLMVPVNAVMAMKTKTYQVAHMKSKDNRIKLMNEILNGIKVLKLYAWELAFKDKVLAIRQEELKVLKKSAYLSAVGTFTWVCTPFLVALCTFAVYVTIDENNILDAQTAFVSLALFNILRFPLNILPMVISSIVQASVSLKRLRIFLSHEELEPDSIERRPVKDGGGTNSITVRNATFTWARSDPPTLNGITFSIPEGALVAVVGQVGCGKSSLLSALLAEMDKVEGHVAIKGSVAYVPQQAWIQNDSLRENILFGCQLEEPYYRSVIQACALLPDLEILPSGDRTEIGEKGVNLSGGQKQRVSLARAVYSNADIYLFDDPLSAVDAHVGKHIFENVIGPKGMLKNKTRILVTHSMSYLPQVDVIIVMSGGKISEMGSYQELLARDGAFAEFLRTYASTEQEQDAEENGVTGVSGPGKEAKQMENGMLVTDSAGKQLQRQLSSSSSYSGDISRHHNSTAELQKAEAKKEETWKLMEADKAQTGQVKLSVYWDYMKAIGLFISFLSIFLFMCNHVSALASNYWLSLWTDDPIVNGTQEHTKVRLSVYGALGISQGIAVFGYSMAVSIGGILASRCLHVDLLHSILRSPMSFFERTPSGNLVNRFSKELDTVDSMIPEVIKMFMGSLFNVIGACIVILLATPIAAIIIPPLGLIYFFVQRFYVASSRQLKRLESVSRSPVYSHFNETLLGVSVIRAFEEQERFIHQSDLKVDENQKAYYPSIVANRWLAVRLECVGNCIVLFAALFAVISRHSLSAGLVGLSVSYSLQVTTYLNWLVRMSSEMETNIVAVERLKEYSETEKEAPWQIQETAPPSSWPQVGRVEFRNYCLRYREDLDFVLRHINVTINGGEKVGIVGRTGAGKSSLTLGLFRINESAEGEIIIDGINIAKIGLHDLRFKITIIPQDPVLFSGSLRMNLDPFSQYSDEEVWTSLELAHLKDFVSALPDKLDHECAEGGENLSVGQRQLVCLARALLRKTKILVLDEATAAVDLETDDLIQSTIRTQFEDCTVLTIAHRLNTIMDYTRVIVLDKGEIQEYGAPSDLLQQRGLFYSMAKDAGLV
Assay: Inhibition of MRP1-mediated E2-17betaG transport in human MRP1 expressing HEK293 cells at 12 uM during 5 mins
Format: ADME, cell-based
Settings: probe E2-17betaG
outcome.measure: inhibition at 5 min, 12 µM (%)
Kindly answer with a numeric value in %, unit omitted.

Incoming: Give the reported inhibition at 5 min, 12 µM for this molecule. CCN(C)S(=O)(=O)NC(=NC)N1CC(c2ccccc2)C(c2ccc(Cl)cc2)=N1 (stereo unspecified)
Outgoing: -34

====

Target: ATP-binding cassette sub-family C member 2 (Homo sapiens, UniProt Q92887)
Sequence (Q92887 whole entry): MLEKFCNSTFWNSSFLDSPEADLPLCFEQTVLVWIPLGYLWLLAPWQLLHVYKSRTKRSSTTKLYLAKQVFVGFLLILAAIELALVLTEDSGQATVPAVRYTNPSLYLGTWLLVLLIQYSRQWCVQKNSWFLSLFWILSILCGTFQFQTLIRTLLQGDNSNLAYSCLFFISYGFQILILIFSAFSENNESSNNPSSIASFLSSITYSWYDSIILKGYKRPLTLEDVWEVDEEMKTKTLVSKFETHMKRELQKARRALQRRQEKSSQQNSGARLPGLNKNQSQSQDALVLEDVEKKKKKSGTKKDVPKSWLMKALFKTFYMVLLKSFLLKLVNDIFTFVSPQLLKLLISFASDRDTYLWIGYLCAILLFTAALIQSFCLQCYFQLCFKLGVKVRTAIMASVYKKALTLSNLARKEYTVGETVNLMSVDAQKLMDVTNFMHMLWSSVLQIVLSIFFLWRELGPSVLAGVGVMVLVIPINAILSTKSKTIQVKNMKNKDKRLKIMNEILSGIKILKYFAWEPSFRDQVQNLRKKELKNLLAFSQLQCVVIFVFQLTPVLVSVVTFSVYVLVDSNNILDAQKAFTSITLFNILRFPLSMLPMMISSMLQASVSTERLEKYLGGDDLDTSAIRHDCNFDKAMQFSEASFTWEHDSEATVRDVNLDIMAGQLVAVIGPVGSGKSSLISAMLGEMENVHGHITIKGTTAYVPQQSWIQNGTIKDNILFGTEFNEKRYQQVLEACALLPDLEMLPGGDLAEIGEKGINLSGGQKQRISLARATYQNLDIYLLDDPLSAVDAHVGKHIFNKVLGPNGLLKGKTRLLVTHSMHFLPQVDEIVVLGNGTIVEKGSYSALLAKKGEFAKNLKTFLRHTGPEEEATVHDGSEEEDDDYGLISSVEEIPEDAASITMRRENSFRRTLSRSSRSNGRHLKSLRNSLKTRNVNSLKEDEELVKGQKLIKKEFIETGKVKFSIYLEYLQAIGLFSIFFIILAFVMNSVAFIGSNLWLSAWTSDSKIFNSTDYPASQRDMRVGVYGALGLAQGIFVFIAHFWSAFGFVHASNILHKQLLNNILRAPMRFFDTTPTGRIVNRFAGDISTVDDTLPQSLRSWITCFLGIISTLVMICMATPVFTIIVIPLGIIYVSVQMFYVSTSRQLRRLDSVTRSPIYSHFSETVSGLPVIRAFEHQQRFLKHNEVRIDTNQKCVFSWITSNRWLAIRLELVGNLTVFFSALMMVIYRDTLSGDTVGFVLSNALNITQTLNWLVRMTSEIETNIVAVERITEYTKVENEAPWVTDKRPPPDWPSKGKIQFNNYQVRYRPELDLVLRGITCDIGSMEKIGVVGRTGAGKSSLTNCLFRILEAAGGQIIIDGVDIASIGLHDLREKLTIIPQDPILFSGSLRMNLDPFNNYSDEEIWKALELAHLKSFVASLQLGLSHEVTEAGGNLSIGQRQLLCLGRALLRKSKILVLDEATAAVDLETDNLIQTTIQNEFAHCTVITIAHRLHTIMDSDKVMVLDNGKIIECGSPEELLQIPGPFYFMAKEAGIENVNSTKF
Experiment: Induction of MRP2-mediated E2-17betaG transport in human MRP2 expressing HEK293 cells at 1 to 3 uM during 5 mins
Type: ADME, cell-based
Settings: hek293, 5 min
outcome.measure: Activity (%)
Quick note: give the figure in %, leave out the unit.

As a guide, the following entries are already answered.
compound	outcome.measure	assay.result
CNC(=NS(=O)(=O)N1CCCCCCC1)N1CC(c2ccccc2)C(c2ccc(Cl)cc2)=N1 (centres undefined)	Activity	349
CN/C(=N\S(=O)(=O)N1CCCCCC1)N1CC(c2ccccc2)C(c2ccc(Cl)cc2)=N1 (centres undefined)	Activity	349

Incoming: Identify measured Activity associated with C/N=C(\NS(=O)(=O)N1CCSCC1)N1CC(c2ccccc2)C(c2ccc(Cl)cc2)=N1 (centres undefined)
Outgoing: 349

====

Biological target: ATP-binding cassette sub-family C member 4 (Homo sapiens)
Sequence (O15439 whole entry): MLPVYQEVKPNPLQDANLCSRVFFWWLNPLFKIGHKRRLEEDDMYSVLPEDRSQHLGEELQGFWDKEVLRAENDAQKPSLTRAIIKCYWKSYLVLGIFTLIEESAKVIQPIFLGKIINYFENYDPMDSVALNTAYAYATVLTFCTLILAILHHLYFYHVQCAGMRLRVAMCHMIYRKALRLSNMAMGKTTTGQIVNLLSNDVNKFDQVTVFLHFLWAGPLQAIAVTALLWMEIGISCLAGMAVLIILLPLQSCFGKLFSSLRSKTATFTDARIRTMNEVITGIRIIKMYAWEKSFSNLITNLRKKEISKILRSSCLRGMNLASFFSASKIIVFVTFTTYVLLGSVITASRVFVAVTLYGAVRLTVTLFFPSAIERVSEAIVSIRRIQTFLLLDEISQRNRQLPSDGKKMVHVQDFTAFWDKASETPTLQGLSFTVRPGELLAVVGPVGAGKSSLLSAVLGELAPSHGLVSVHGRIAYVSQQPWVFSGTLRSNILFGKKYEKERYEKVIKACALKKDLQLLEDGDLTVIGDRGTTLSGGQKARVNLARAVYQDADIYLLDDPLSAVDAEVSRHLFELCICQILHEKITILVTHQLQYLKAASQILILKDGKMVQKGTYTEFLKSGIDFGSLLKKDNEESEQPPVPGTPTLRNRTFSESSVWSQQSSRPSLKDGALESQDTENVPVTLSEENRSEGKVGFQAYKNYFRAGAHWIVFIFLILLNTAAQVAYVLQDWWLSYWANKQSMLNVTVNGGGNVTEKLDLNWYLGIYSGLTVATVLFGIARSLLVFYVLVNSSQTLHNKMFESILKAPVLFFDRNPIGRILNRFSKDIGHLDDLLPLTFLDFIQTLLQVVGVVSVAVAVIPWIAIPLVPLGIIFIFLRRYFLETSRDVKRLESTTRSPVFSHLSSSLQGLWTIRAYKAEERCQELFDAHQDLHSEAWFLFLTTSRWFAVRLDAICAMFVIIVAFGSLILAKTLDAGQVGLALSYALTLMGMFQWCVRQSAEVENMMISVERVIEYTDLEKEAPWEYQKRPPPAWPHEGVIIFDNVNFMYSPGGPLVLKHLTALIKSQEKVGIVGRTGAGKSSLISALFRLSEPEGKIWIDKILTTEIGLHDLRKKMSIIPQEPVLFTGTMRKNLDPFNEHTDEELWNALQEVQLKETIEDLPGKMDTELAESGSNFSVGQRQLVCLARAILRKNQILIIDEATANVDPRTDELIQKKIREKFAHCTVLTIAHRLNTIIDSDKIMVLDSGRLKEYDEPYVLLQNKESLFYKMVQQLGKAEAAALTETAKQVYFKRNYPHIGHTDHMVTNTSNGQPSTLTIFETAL
Assay: Noncompetitive inhibition of MRP4-mediated E2-17betaG transport in human MRP4 expressing HEK293 cells by Dixon plot
# pKi annotations
Here pKi is given on a logarithmic scale as minus log10 of the concentration in mol/L.

molecule	target.or.system	pKi
CCN(C)S(=O)(=O)NC(=NC)N1CC(c2ccccc2)C(c2ccc(Cl)cc2)=N1 (configuration not stated)	ATP-binding cassette sub-family C member 4 (Homo sapiens)	5.15

Incoming: Report pKi, nothing else, for this molecule: Cc1c(C(=O)NN2CCCCC2)nn(-c2ccc(Cl)cc2Cl)c1-c1ccc(Cl)cc1
Outgoing: 5.40

====

Assay: Retention time of the compound by LC-MS/MS method
Assay type: physicochemical
outcome.measure: Retention_time (min)
# value in min; strip the unit string

Some molecules with recorded Retention_time:
molecule	Retention_time, min
CCN(C)S(=O)(=O)NC(=NC)N1CC(c2ccccc2)C(c2ccc(Cl)cc2)=N1 (stereo not given)	3.8
Cc1c(C(=O)NN2CCCCC2)nn(-c2ccc(Cl)cc2Cl)c1-c1ccc(Cl)cc1	3.2
CNC(=NS(=O)(=O)N1CCCCCCC1)N1CC(c2ccccc2)C(c2ccc(Cl)cc2)=N1 (stereo not given)	5.4
CN=C(NS(=O)(=O)N1CCS(=O)(=O)CC1)N1CC(c2ccccc2)C(c2ccc(Cl)cc2)=N1 (stereo not given)	2.6
C/N=C(\NS(=O)(=O)N(C)C(C)C)N1CC(c2ccccc2)C(c2ccc(Cl)cc2)=N1 (stereo not given)	4.2
CCN(CC)S(=O)(=O)NC(=NC)N1CC(c2ccccc2)C(c2ccc(Cl)cc2)=N1 (stereo not given)	4.2
CN/C(=N\S(=O)(=O)N1CCCCCC1)N1CC(c2ccccc2)C(c2ccc(Cl)cc2)=N1 (stereo not given)	4.8
C/N=C(\NS(=O)(=O)N(C)C)N1CC(c2ccccc2)C(c2ccc(Cl)cc2)=N1 (stereo not given)	3.2
C/N=C(\NS(=O)(=O)N1CCSCC1)N1CC(c2ccccc2)C(c2ccc(Cl)cc2)=N1 (stereo not given)	4

Incoming: Please report the measured Retention_time for CN=C(NS(=O)(=O)N1CCCC1)N1CC(c2ccccc2)C(c2ccc(Cl)cc2)=N1 (stereo not given)
Outgoing: 3.5
